Each entry below lists one item and its recorded melting point value.
READOUT: melting point

| MOLECULE | READOUT | RESULT |
| --- | --- | --- |
| CNC(=O)NS(=O)(=O)c1cc(CCNC(=O)C=C(C)C)ccc1OC [Example 16] | melting point | 199 to 203 °C |
| CCOCCOc1ccc(CCNC(=O)c2cnc3ccccc3c2)cc1S(=O)(=O)NC(=S)NC [Example 10] | melting point | 50 to 52 °C |
| CNC(=S)NS(=O)(=O)c1cc(CCNC(=O)C2=CCCCC2)ccc1OCCOC [Example 22] | melting point | 150 to 155 °C |
| CCOc1ccc(CCNC(=O)c2cnc3ccccc3c2)cc1S(=O)(=O)NC(=S)NC [Example 7] | melting point | 189 to 193 °C |
